# thrombin peak (nM) at 6.25 nM, FVIII-neutralised plasma, endogenous TFPI values compiled below
- measured_on: endogenous TFPI of normal human plasma (human, UniProt P10646 29-304, limits assumed)
- test_description: cell-based or functional assay
Write down the numeric answer in nM and omit the unit.

Here are 3 binders together with their reported answers.
INSERT INTO measurements (binder, number) VALUES
  ('Fab 0094 (Fab fragment of mAb 2007) (Fab, V domains shown, KPI-2 specific) VH: EVQLVESGGGLVKPGGSLRLSCAASGFTFSNYAMSWVRQAPGKGLEWVSTISRSGSYSYYPDSVKGRFTISRDNAKNSLYLQMNSLRAEDTAVYYCARLGGYDEGDAMDSWGQGTTVTVSS VL: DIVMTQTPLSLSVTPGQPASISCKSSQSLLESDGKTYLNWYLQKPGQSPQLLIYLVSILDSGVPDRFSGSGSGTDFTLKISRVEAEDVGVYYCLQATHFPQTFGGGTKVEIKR', 35.9),
  ('Fab 0088 (Fab fragment of mAb 2021) (Fab, V domains shown, free C-terminal cysteine; KPI-2 specific) VH: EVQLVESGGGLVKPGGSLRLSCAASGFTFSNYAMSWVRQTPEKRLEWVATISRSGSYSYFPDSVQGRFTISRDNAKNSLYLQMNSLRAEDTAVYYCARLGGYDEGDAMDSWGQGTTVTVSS VL: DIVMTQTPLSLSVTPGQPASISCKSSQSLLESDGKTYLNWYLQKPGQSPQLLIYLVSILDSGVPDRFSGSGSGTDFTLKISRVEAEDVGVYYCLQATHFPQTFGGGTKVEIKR', 96.8),
  ('mAb 2021 (antibody, human IgG4 S228P, kappa, V domains shown) VH: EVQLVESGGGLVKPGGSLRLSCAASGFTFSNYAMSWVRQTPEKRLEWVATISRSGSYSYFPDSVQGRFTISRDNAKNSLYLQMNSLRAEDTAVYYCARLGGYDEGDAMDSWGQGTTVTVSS VL: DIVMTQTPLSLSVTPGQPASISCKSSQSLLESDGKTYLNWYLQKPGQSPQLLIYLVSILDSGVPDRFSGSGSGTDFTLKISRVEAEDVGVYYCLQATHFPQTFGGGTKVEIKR', 113);

thrombin peak (nM) at 6.25 nM, FVIII-neutralised plasma, endogenous TFPI for Fab 0095 (Fab fragment of mAb 2014) (Fab, V domains shown, KPI-2 specific) VH: EVQLVESGGGLVKPGGSLRLSCAASGFTFSNYAMSWVRQAPGKGLEWVSTISRSGSYSYYADSVKGRFTISRDNAKNSLYLQMNSLRAEDTAVYYCARLGGYDEGDAMDSWGQGTTVTVSS VL: DIVMTQTPLSLSVTPGQPASISCKSSQSLLESDGKTYLNWLLQRPGESPKLLIYLVSILDSGVPDRFSGSGSGTDFTLKISRVEAEDVGVYYCLQATHFPQTFGGGTKVEIKR ?
74.2

Taken from patent US20180208675A1.
